Below, each of the compounds is paired with its reported Growth Rate value.
# System: Fibroblast
# assay-method-text: Incucyte cell viability with human fibroblast; note: filed as whole numbers so only -1 and 0 and 1 occur
# Assay type: toxicity, cell-based
# stated-conditions: 24 h, 10 µM, compound concentration 10 uM, replicate number 1, timepoint 24 hours

compound: C[C@@]1(Cc2ccc(C#N)cc2)C(=O)N(c2cc(Cl)cc(Cl)c2)c2ncc(C(=O)NC3(c4nc(C5CCC5)no4)CC3)n21
Growth Rate: 0
--
compound: Cc1cccc([C@H](C)c2c[nH]cn2)c1C.Cl [DEXMEDETOMIDINE HYDROCHLORIDE]
Growth Rate: 1
--
compound: Cc1c(-c2ccc(O)cc2)n(Cc2ccc(OCCN3CCCCCC3)cc2)c2ccc(O)cc12
Growth Rate: 0
--
compound: Cn1cnc2c(F)c(Nc3ccc(Br)cc3Cl)c(C(=O)NOCCO)cc21
Growth Rate: 1
--
compound: CC[C@H](C)C(=O)O[C@H]1C[C@@H](C)C=C2C=C[C@H](C)[C@H](CC[C@@H]3C[C@@H](O)CC(=O)O3)[C@H]21
Growth Rate: 1
--
compound: Cn1cc(-c2[nH]c3cc(NC(=O)[C@H](N)C4CCCCC4)cc4c3c2C=NNC4=O)cn1
Growth Rate: 1
--
compound: CSc1ccc(C(=O)N[C@@H]2CCCC[C@@H]2NC(=O)CNC(=O)c2cc(C(F)(F)F)ccc2NC(=O)NC(C)C)cc1
Growth Rate: 0
--
compound: COc1cccc([C@@H](C)NCCCc2ccccc2Cl)c1.Cl [TECALCET HYDROCHLORIDE]
Growth Rate: 1
--
compound: C=CC(=O)Nc1cccc(C(=O)Nc2ccc(Nc3cc(-c4[nH]c(SC)nc4C)ccn3)cc2)c1
Growth Rate: 1
--
compound: CN(C)C(=O)N[C@H]1CC[C@H](CCN2CCN(c3cccc(Cl)c3Cl)CC2)CC1.Cl [CARIPRAZINE HYDROCHLORIDE]
Growth Rate: 1
--
compound: Cc1nc(C2CCN(C(=O)c3ccc(OC(F)(F)F)cc3N)CC2)c2ncc(N3CCN(C)CC3)cc2n1
Growth Rate: 1
--
compound: C[C@@H](NCCCc1cccc(C(F)(F)F)c1)c1cccc2ccccc12.Cl [CINACALCET HYDROCHLORIDE]
Growth Rate: 0
--
compound: O=S(=O)(c1ccccc1)N(CC(F)(F)F)c1ccc(C(O)(C(F)(F)F)C(F)(F)F)cc1
Growth Rate: 0
--
compound: COc1cc(-n2cnc3cc(-c4ccc(Cl)cc4)sc3c2=O)ccc1OCCN1CCCC1
Growth Rate: 0
--
compound: Cc1cc(C)cc(-c2cnc3cc(Cl)c(-c4cccc(O)c4)cc3c2OCCCN)c1
Growth Rate: 0
--
compound: CNCCC(Oc1ccc(C(F)(F)F)cc1)c1ccccc1.Cl (configuration not stated) [FLUOXETINE HYDROCHLORIDE]
Growth Rate: 1
--
compound: Cc1c(C(=O)NC2CCCCC2)sc2nc3ccc(N)cc3n12.Cl
Growth Rate: 1

* * *

# System: Fibroblast
# assay-method-text: Multiplex assay against human fibroblast
# Type: toxicity, cell-based
# stated-conditions: 12 h, 1 µM, compound concentration 1 uM, replicate 2
measured-property: Population Apoptotic (%)

compound: Cc1csc2c(N[C@@H](C)CN3CCN(S(=O)(=O)c4ccc(Cl)c(Cl)c4)CC3)ncnc12
measurement-unit: %
value-reported: 16

compound: Cc1nc(-c2cn3c(n2)-c2ccc(-c4cnn(C(C)(C)C(N)=O)c4)cc2OCC3)n(C(C)C)n1
measurement-unit: %
value-reported: 100

compound: C[C@@]1(C(=O)Nc2ccc(F)nc2)CCCN1c1nc(Nc2cc(C3CC3)n[nH]2)c2cccn2n1
measurement-unit: %
value-reported: 66

compound: CN1CCCC(n2nc(Cc3ccc(Cl)cc3)c3ccccc3c2=O)CC1.Cl (stereo not drawn) [AZELASTINE HYDROCHLORIDE]
measurement-unit: %
value-reported: 25

compound: NC(=O)Nc1cc(-c2cccc(F)c2)sc1C(=O)N[C@H]1CCCNC1
measurement-unit: %
value-reported: 60

compound: CN(C)C(=O)/C(C#N)=C/c1ccc(-c2nc3cnc4[nH]ccc4c3n2C2CCCCC2)o1
measurement-unit: %
value-reported: 57

compound: COc1cc(-n2cnc3cc(-c4ccc(Cl)cc4)sc3c2=O)ccc1OCCN1CCCC1
measurement-unit: %
value-reported: 71

compound: CC(C)(O)CNc1ncc(-c2ccnc(Nc3ccnc(Cl)c3)n2)c(CC2CC2)n1
measurement-unit: %
value-reported: 9
